B1: VH:VL chains; a variant is named by its letters at X, in order (parent)
chain 1: QVQLVQSGAEVKKPGASVKVSCKASGYTFTDYXMHWVRQAPGQGLEWMGXVNPNXXXTTYNQKFEGRVTMTTDTSTSTAYMELRSLRSDDTAVYYCARXNXLDXWGQGTTVTVSS
chain 2: DIQMTQSPSSLSASVGDRVTITCSVSSSVSSIYLHWYQQKPGKAPKLLIYSTSNLASGVPSRFSGSGSGTDFTLTISSLQPEDFATYYCQVYSGYPLTFGGGTKVEIK

Variants of: B1
protocol: yeast display scFab, FACS + sequencing
assayEndpoint: non-specific binding call

VRGTGDWD	no binding
VTGEADAS	no binding
AGGRGDVD	no binding
DAGEGFVA	no binding
YRRKGASV	binds
SAGKDDLA	no binding
YRARSDVF	no binding
DATGGSGA	no binding

*Q* Field request: non-specific binding call | item: `YGKGGDLA`
*A* binds

*Q* Field request: non-specific binding call | item: `YRGKASWD`
*A* binds

*Q* Field request: non-specific binding call | item: `DTTKGDGS`
*A* no binding

*Q* Field request: non-specific binding call | item: `VKGRGAAY`
*A* binds

*Q* Field request: non-specific binding call | item: `YRAGDFGV`
*A* no binding
